# TARGET: GST-MCL-1 (Homo sapiens (Human))
# Sequence (Q07820 whole entry): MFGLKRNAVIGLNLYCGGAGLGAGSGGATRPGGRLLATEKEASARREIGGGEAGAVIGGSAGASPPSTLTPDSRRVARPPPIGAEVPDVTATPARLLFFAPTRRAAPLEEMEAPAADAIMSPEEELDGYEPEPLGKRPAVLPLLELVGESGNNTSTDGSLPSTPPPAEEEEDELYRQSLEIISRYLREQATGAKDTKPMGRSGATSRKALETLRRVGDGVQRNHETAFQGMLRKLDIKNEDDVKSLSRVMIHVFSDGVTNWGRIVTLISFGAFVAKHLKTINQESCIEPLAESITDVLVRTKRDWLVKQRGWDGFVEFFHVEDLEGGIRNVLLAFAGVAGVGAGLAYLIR
# EXPERIMENT NOTES: TR-FRET MCL-1 binding assay (competition with probe F-Bak)
# SETTINGS: read-out: MCL-1 Binding Ki (nM, 10% HS), in the presence of 10% HS
# Protocol: For the assay, an acoustic dispenser was used to prepare dilution series from 10 mM test compounds in 100% DMSO and directly transfer 160 nL into low volume 384-well assay plates. […] The samples were then mixed on a shaker for 1 minute and incubated for an additional 2 hours at room temperature. […] Fluorescence was measured on the Envision (Perkin Elmer) using a 340/35 nm excitation filter and 520/525 (F-Bak) and 495/510 nm (Tb-labeled anti-his antibody) emission filters. […]
// returns f unless Ki is strictly below 0.2 nM, in which case t

Illustrative cases are given below, each with its answer.
// query In plain terms, does Cc1c(Cl)c2c(Cl)c(C)c1-c1c(-c3ccc(F)cc3)sc3ncnc(c13)O[C@@H](C(=O)O)Cc1cc(ccc1OCc1cncc(-c3ccc(OC[C@H]4COCCO4)cc3)n1)OC[C@@H](CN1CCN(C)CC1)O2 [Example 16] come in under 0.2 nM for Ki?
// result f

// query In plain terms, does Cc1c(Cl)c2c(Cl)c(C)c1-c1c(-c3ccc(F)cc3)sc3ncnc(c13)O[C@@H](C(=O)O)Cc1cc(ccc1OCc1ccnc(N3CC(COC[C@H]4COCCO4)C3)n1)OC[C@@H](CN1CCN(C)CC1)O2 [Example 12] come in under 0.2 nM for Ki?
// result f

// query In plain terms, does Cc1c(Cl)c2c(Cl)c(C)c1-c1c(-c3ccc(F)cc3)sc3ncnc(c13)O[C@@H](C(=O)O)Cc1cc(ccc1OCc1ccnc(-c3ccc(OC[C@H]4COC(C)(C)O4)cc3)n1)OC[C@@H](CN1CCN(C)CC1)O2 [Example 1] come in under 0.2 nM for Ki?
// result f

Further cases:
// query In plain terms, does Cc1c(Cl)c2c(Cl)c(C)c1-c1c(-c3ccc(F)cc3)sc3ncnc(c13)O[C@@H](C(=O)O)Cc1cc(ccc1OCc1ccnc(C3=CC[C@](F)(COC[C@@H]4COCCO4)CC3)n1)OC[C@@H](CN1CCN(C)CC1)O2 [Example 45] come in under 0.2 nM for Ki?
// result t

// query In plain terms, does Cc1c(Cl)c2c(Cl)c(C)c1-c1c(-c3ccc(F)cc3)sc3ncnc(c13)O[C@@H](C(=O)O)Cc1cc(ccc1OCc1ccnc([C@H]3CC[C@](F)(COC[C@H]4COCCO4)CC3)n1)OC[C@@H](CN1CCN(C)CC1)O2 [Example 39] come in under 0.2 nM for Ki?
// result t

// query In plain terms, does Cc1c(Cl)c2c(Cl)c(C)c1-c1c(-c3ccc(F)cc3)sc3ncnc(c13)O[C@@H](C(=O)O)Cc1cc(ccc1OCc1ccnc([C@H]3CC[C@@](F)(COC[C@@H]4COCCO4)CC3)n1)OC[C@@H](CN1CCN(C)CC1)O2 [Example 46] come in under 0.2 nM for Ki?
// result f

// query In plain terms, does Cc1c(Cl)c2c(Cl)c(C)c1-c1c(-c3ccc(F)cc3)sc3ncnc(c13)O[C@@H](C(=O)O)Cc1cc(ccc1OCc1ccnc([C@H]3CC[C@H](COC[C@@H]4COCCO4)CC3)n1)OC[C@@H](CN1CCN(C)CC1)O2 [Example 49] come in under 0.2 nM for Ki?
// result t

// query In plain terms, does Cc1c(Cl)c2c(Cl)c(C)c1-c1c(C3=CCCC3)sc3ncnc(c13)O[C@@H](C(=O)O)Cc1cc(ccc1OCc1ccnc([C@H]3CC[C@H](OCC4COCCO4)CC3)n1)OC[C@@H](CN1CCN(C)CC1)O2 (some centres unmarked) [Example 32] come in under 0.2 nM for Ki?
// result f
